# Tested on: E. coli 11775
# Assay Method Text: Minimal inhibitory concentration (liquid culture)
# Applied Conditions: inoculum 1200 CFU/ml; a-b = highest concentration with growth - lowest without growth
Residues, ends and D or L forms follow the SMILES beside them.
Recorded Metric: minimal inhibitory concentration (MIC)

CC[C@H](C)[C@H](NC(=O)[C@@H]1CCCN1C(=O)[C@H](C)NC(=O)[C@@H]1CCCN1C(=O)[C@H](CCCNC(=N)N)NC(=O)[C@@H]1CCCN1C(=O)[C@H](CCCCN)NC(=O)[C@H](CO)NC(=O)[C@@H]1CCCN1C(=O)[C@H](CCCCN)NC(=O)CN)C(=O)N[C@@H](CCCCN)C(=O)N1CCC[C@H]1C(=O)N[C@@H](CCCNC(=N)N)C(=O)N1CCC[C@H]1C(=O)N1CCC[C@H]1C(=O)N[C@@H](Cc1c[nH]cn1)C(=O)N1CCC[C@H]1C(=O)N[C@@H](CCCNC(=N)N)C(=O)N[C@@H](CC(C)C)C(=O)O [Cd 3+] (H-GKPSKPRPAPIKPRPPHPRL-OH) : 0.1 to 0.5 µg/mL
